assay: Pharmacokinetic evaluation in rats (liver-blood ratio); type: in vivo, CD rats; conditions: male, CD, plasma; rat, PO, 5.0 mg/kg, 2 h; read-out: Blood drug concentration P
ASSAY_METRIC: concentration at 2 h (ng/mL)
Numbers only; they are read as ng/mL.

get_value(item= C[C@@H]1CCc2c(Oc3c(Cl)cc(-n4nc(C#N)c(=O)[nH]c4=O)cc3Cl)ccc(=O)n21 [Compound represented by formula (I)] , readout=concentration at 2 h) returns 153

====

experiment: Pharmacokinetic evaluation in rats (liver-blood ratio); format: in vivo, CD rats; settings: male, CD, plasma; rat, PO, 5.0 mg/kg; read-out: T½ (converted)
ASSAY_METRIC: half-life (h)
# number only, unit h dropped from output

Value of half-life reported for the compound C[C@@H]1CCc2c(Oc3c(Cl)cc(-n4nc(C#N)c(=O)[nH]c4=O)cc3Cl)ccc(=O)n21 is 3.7

====

assay: Pharmacokinetic evaluation in rats (liver-blood ratio); assay type: in vivo, CD rats; conditions: male, CD, liver/plasma; rat, PO, 5.0 mg/kg, 2 h; read-out: L/P concentration ratio
ASSAY_METRIC: Kp at 2 h
Reply briefly: the number, and no unit.

Value of measured Kp at 2 h for the entry C[C@@H]1CCc2c(Oc3c(Cl)cc(-n4nc(C#N)c(=O)[nH]c4=O)cc3Cl)ccc(=O)n21 : 7.7

====

target: thyroid hormone receptor β (THR β) (Homo sapiens, UniProt P10828); test: In vitro enzyme activity test of thyroid receptor β (TR-FRET, binding of THRβ LBD with co-activating peptide SRC2-2)
Sequence (P10828 217-461 limits assumed, other chains not shown): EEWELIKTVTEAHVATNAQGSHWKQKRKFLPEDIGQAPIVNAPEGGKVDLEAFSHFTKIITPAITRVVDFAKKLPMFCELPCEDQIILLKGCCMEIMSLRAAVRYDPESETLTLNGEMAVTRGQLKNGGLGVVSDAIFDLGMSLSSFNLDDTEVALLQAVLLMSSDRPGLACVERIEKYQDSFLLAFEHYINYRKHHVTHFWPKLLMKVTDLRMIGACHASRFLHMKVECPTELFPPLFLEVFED
Sequence (P19793 whole entry partner, other chains not shown, the tested form may be a part): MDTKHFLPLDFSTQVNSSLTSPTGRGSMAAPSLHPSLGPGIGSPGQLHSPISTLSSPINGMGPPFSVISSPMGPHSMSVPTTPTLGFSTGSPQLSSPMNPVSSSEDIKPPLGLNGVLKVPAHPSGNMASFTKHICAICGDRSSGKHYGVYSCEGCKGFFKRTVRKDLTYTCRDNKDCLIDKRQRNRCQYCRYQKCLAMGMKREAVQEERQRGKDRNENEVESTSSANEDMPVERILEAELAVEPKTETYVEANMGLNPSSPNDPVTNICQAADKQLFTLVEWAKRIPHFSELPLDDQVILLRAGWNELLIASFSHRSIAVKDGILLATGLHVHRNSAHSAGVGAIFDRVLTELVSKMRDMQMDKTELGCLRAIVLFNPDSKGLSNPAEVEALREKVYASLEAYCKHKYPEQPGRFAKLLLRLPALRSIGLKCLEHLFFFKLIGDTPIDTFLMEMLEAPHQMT
ASSAY_METRIC: pEC50
// pEC50 here means minus log10 of the molar concentration (mol/L)

According to the records, this compound C[C@@H]1CCc2c(Oc3c(Cl)cc(-n4nc(C#N)c(=O)[nH]c4=O)cc3Cl)ccc(=O)n21 displays pEC50 of 7.34

====

test: Pharmacokinetic evaluation in rats (liver-blood ratio); type: in vivo, CD rats; conditions: male, CD, plasma; rat, PO, 5.0 mg/kg, 6 h; read-out: Blood drug concentration P
ASSAY_METRIC: concentration at 6 h
State the value, then name its unit.

Value of measured concentration at 6 h for the entry C[C@@H]1CCc2c(Oc3c(Cl)cc(-n4nc(C#N)c(=O)[nH]c4=O)cc3Cl)ccc(=O)n21 : 33.8 ng/mL

====

assay: Pharmacokinetic evaluation in rats (liver-blood ratio); assay type: in vivo, CD rats; conditions: male, CD, liver; rat, PO, 5.0 mg/kg, 10 h; read-out: Liver drug concentration L
ASSAY_METRIC: concentration at 10 h

Notebook: C[C@@H]1CCc2c(Oc3c(Cl)cc(-n4nc(C#N)c(=O)[nH]c4=O)cc3Cl)ccc(=O)n21 [Compound represented by formula (I)] , concentration at 10 h read as 238 ng/g

====

assay: Pharmacokinetic evaluation in rats (liver-blood ratio); type: in vivo, CD rats; conditions: male, CD, liver; rat, PO, 5.0 mg/kg, 2 h; read-out: Liver drug concentration L
ASSAY_METRIC: concentration at 2 h (ng/g)
The response must be a number in ng/g with no trailing unit.

// recorded concentration at 2 h for C[C@@H]1CCc2c(Oc3c(Cl)cc(-n4nc(C#N)c(=O)[nH]c4=O)cc3Cl)ccc(=O)n21 [Compound represented by formula (I)] : 1180
